- Tested on: Eimeria tenella
- experiment.notes: Antiprotozoal screening, Eimeria tenella (in vitro)
- Type: cell-based
- test.parameters: 5 mg/L, in vitro, read-out: Result (screen code, inhibition)
Where a name gives a salt, the structure may show the parent alone.
Listed molecules paired with reported inhibition at 5 µg/mL

# count of solved cases: 3
molecule | tested.on | inhibition at 5 µg/mL
OCC(CO)NCc1ccc2ccc3cccc4ccc1c2c34 [Example 11, hydrochloride] | Eimeria tenella | 76 to 100%
OCCNCc1ccc2ccc3cccc4ccc1c2c34 [Example 13, hydrochloride] | Eimeria tenella | 26 to 50%
CC(C)(O)CNCc1ccc2ccc3cccc4ccc1c2c34 [Example 12, hydrochloride] | Eimeria tenella | 76 to 100%

Req: Could you tell me which inhibition at 5 µg/mL is on file for CC(C)(CO)NCc1ccc2ccc3cccc4ccc1c2c34 [Example 2A, hydrochloride] ?
Resp: 26 to 50%

* * *

- Test system: Candida albicans (CN1863)
- experiment.notes: Antifungal screening, Candida albicans, broth and agar dilution assays
- Type: cell-based
- test.parameters: Medium: Wellcotest sensitivity test agar plus 7% lysed horse blood
Counter-ions that a name gives are not always drawn.
Listed molecules paired with reported MIC
Give the value in µg/mL but do not write µg/mL after it.

# count of solved cases: 5
molecule | MIC / µg/mL
CC(O)CCNCc1ccc2ccc3cccc4ccc1c2c34 (stereo not drawn) [Example 14, hydrochloride] | 50
CC(O)CNCc1ccc2ccc3cccc4ccc1c2c34 (stereo not drawn) [Example 8, hydrochloride] | 50
OCCCNCc1ccc2ccc3cccc4ccc1c2c34 [Example 3, hydrochloride] | 30
CC(CO)NCc1ccc2ccc3cccc4ccc1c2c34 (stereo not drawn) [Example 7, hydrochloride] | 50
OCC(CO)NCc1ccc2ccc3cccc4ccc1c2c34 [Example 11, hydrochloride] | 50

Req: Could you tell me which MIC is on file for CC(CO)(CO)NCc1ccc2ccc3cccc4ccc1c2c34 [Example 1A, hydrochloride] ?
Resp: 50

Req: Could you tell me which MIC is on file for CCC(CO)NCc1ccc2ccc3cccc4ccc1c2c34 (stereo not drawn) [Example 6, hydrochloride] ?
Resp: 50

Req: Could you tell me which MIC is on file for CCC(CO)(CO)NCc1ccc2ccc3cccc4ccc1c2c34 [Example 5A, hydrochloride] ?
Resp: 50

Req: Could you tell me which MIC is on file for CCC(O)CNCc1ccc2ccc3cccc4ccc1c2c34 (stereo not drawn) [Example 9, hydrochloride] ?
Resp: 10

Req: Could you tell me which MIC is on file for CC(CO)(CO)NCc1cc2cccc3ccc4cccc1c4c32 [Example 19] ?
Resp: 30

Req: Could you tell me which MIC is on file for OCCNCc1ccc2ccc3cccc4ccc1c2c34 [Example 13, hydrochloride] ?
Resp: 10

Req: Could you tell me which MIC is on file for CC(C)(CO)NCc1ccc2ccc3cccc4ccc1c2c34 [Example 2A, hydrochloride] ?
Resp: 10

* * *

- Tested on: Candida albicans (CN1863)
- experiment.notes: Antifungal screening, Candida albicans, broth and agar dilution assays
- Assay type: cell-based
- test.parameters: Medium: Wellcotest sensitivity test agar plus 7% lysed horse blood
Where a name gives a salt, the structure may show the parent alone.
parameter.measured: MIC

Req: Could you tell me which MIC is on file for CC(C)(O)CNCc1ccc2ccc3cccc4ccc1c2c34 [Example 12, hydrochloride] ?
Resp: > 50 µg/mL

Req: Could you tell me which MIC is on file for CC(=O)OCC(COC(C)=O)(COC(C)=O)NCc1ccc2ccc3cccc4ccc1c2c34 ?
Resp: > 50 µg/mL

Req: Could you tell me which MIC is on file for OCC(CO)(CO)NCc1ccc2ccc3cccc4ccc1c2c34 [Example 10, hydrochloride] ?
Resp: > 50 µg/mL
